assay: Stability in Sprague-Dawley rat liver microsomes assessed as drug degradation at 1 uM measured within 15 mins; type: ADME, Microsome; details: read-out: Drug degradation
Assay Metric: metabolised at 0.25 h, 1 µM
Please state the value followed by its unit.

Query block: Give the measured metabolised at 0.25 h, 1 µM of `CNC(=O)O[C@@H](CC(C)C)c1nc([C@H]2OC(=O)/C=C/C/C(C)=C/[C@@H](O)[C@@H](C)\C=C(C)/C=C(C)\C=C\[C@@H](O)[C@H](C)[C@H](OC)/C(C)=C/C=C/[C@@H]2C)cs1` .
Result block: 100%

---

Known pIC50 of a selection of compounds
assay: Inhibition of Manduca sexta V-type proton ATPase assessed as reduction in inorganic phosphate production pre-inucubated for 5 mins before Tris-ATP addition and measured after 2 mins
Note on units: pIC50 is unitless, being -log10 of a concentration expressed in mol/L.

Use these answered entries as a reference point.
CNC(=O)O[C@@H](CC(C)C)c1nc([C@H]2OC(=O)[C@H](C)/C=C/C(C)=C/[C@@H](O)[C@@H](C)\C=C(C)/C=C(C)\C=C\[C@@H](O)[C@H](C)[C@H](OC)/C(C)=C/C=C/[C@@H]2C)cs1 ... 8.10
CNC(=O)O[C@@H](CC(C)C)c1nc([C@H]2OC(=O)C/C=C/C(C)=C/[C@@H](O)[C@@H](C)\C=C(C)/C=C(C)\C=C\[C@@H](O)[C@H](C)[C@H](OC)/C(C)=C/C=C/[C@@H]2C)cs1 ... 8.20

Query block: Dear colleague, I am looking for the recorded pIC50 of the following compound: `CNC(=O)O[C@@H](CC(C)C)c1nc([C@@H](O)[C@@H](C)/C=C/C=C(\C)[C@@H](OC)[C@@H](C)[C@H](O)/C=C/C(C)=C\C(C)=C/[C@H](C)[C@H](O)/C=C(C)/C=C/CC(=O)OC)cs1`
Result block: 6.45

Query block: Field request: pIC50 | item: `CNC(=O)O[C@@H](CC(C)C)c1nc([C@H]2OC(=O)C/C=C/C(C)=C/[C@@H](O)[C@@H](C)\C=C(C)/C=C(C)\C=C\[C@@H](O)[C@H](C)[C@H](O)/C(C)=C/C=C/[C@@H]2C)cs1`
Result block: 6.67

Query block: Which measured pIC50 value corresponds to `CO/C1=C\C(C)=C\[C@@H](C)[C@@H](O)[C@@H](C)C/C(C)=C/C=C/[C@H](OC)[C@@H]([C@@H](C)[C@@H](O)[C@H](C)[C@@]2(O)C[C@@H](O)[C@H](C)[C@@H](C(C)C)O2)OC1=O` ?
Result block: 8.00

Query block: Given `CNC(=O)O[C@@H](CC(C)C)c1nc([C@H]2OC(=O)[C@@H](C)/C=C/C(C)=C/[C@@H](O)[C@@H](C)\C=C(C)/C=C(C)\C=C\[C@@H](O)[C@H](C)[C@H](OC)/C(C)=C/C=C/[C@@H]2C)cs1` , state its recorded pIC50.
Result block: 8.26

Query block: Field request: pIC50 | item: `CNC(=O)O[C@@H](CC(C)C)c1nc([C@H]2OC(=O)/C(C)=C/C/C(C)=C/[C@@H](O)[C@@H](C)\C=C(C)/C=C(C)\C=C\[C@@H](O)[C@H](C)[C@H](OC)/C(C)=C/C=C/[C@@H]2C)cs1`
Result block: 8.20
